# Test system: P. aeruginosa K34-7
# experiment: MIC, multi-resistant clinical isolate
# Assay type: cell-based, Pseudomonas aeruginosa
# condition-label: Pseudomonas aeruginosa, K347, read-out: Antimicrobial activity (MIC)
Each record here notes measured MIC.
measured-attribute: MIC

chemical-string | test-system | result
N=C(N)NCCCCN1C(=O)N(CCCCNC(=N)N)C(=O)C(Cc2ccc(F)c3ccccc23)(Cc2ccc(F)c3ccccc23)C1=O | P. aeruginosa K34-7 | 16 µg/mL
CC(C)(C)c1cc(CC2(Cc3cc(C(C)(C)C)cc(C(C)(C)C)c3)C(=O)N(CCCCN)C(=O)N(CCCCN)C2=O)cc(C(C)(C)C)c1 | P. aeruginosa K34-7 | 8 µg/mL
N=C(N)NCCCCN1C(=O)N(CCCCNC(=N)N)C(=O)C(Cc2ccc3ccccc3c2)(Cc2ccc3ccccc3c2)C1=O | P. aeruginosa K34-7 | 32 µg/mL
NCCCCN1C(=O)N(CCCCN)C(=O)C(Cc2cc(C(F)(F)F)cc(C(F)(F)F)c2)(Cc2cc(C(F)(F)F)cc(C(F)(F)F)c2)C1=O | P. aeruginosa K34-7 | 32 µg/mL
NCCCCN1C(=O)N(CCCCN)C(=O)C(Cc2ccc(F)c3ccccc23)(Cc2ccc(F)c3ccccc23)C1=O | P. aeruginosa K34-7 | 32 µg/mL
CC(C)(C)c1ccc(CC2(Cc3ccc(C(C)(C)C)cc3)C(=O)N(CCCCNC(=N)N)C(=O)N(CCCCNC(=N)N)C2=O)cc1 | P. aeruginosa K34-7 | 16 µg/mL
CC(C)(C)c1cc(CC2(Cc3cc(C(C)(C)C)cc(C(C)(C)C)c3)C(=O)N(CCCCNC(=N)N)C(=O)N(CCCCNC(=N)N)C2=O)cc(C(C)(C)C)c1 | P. aeruginosa K34-7 | 16 µg/mL
NCCCCN1C(=O)N(CCCCN)C(=O)C(Cc2cc(Br)cc(Br)c2)(Cc2cc(Br)cc(Br)c2)C1=O | P. aeruginosa K34-7 | 16 µg/mL
CC(C)(C)c1ccc(CC2(Cc3ccc(C(C)(C)C)cc3)C(=O)N(CCCCN)C(=O)N(CCCCN)C2=O)cc1 | P. aeruginosa K34-7 | > 32 µg/mL
NCCCCN1C(=O)N(CCCCN)C(=O)C(Cc2ccc3ccccc3c2)(Cc2ccc3ccccc3c2)C1=O | P. aeruginosa K34-7 | 32 µg/mL
N=C(N)NCCCCN1C(=O)N(CCCCNC(=N)N)C(=O)C(Cc2cc(Br)cc(Br)c2)(Cc2cc(Br)cc(Br)c2)C1=O | P. aeruginosa K34-7 | 8 µg/mL

---

# Test system: S. aureus N315
# experiment: MIC, multi-resistant clinical isolate
# Assay type: cell-based, Staphylococcus aureus
# condition-label: RBC EC50 / MIC, S. aureus N315

chemical-string | test-system | selectivity index (EC50/MIC)
N=C(N)NCCCCN1C(=O)N(CCCCNC(=N)N)C(=O)C(Cc2cc(Br)cc(Br)c2)(Cc2cc(Br)cc(Br)c2)C1=O | S. aureus N315 | (28)
CC(C)(C)c1cc(CC2(Cc3cc(C(C)(C)C)cc(C(C)(C)C)c3)C(=O)N(CCCCN)C(=O)N(CCCCN)C2=O)cc(C(C)(C)C)c1 | S. aureus N315 | (<2)
CC(C)(C)c1ccc(CC2(Cc3ccc(C(C)(C)C)cc3)C(=O)N(CCCCN)C(=O)N(CCCCN)C2=O)cc1 | S. aureus N315 | (18)
